Listed below: Kd values for each entry.
- assayed target: human FGFR2 IIIc variant protein (isoform 1: NP_000132), expressed on transfected cells (UniProt P21802 22-821)
- Sequence (P21802 22-821, change not shown): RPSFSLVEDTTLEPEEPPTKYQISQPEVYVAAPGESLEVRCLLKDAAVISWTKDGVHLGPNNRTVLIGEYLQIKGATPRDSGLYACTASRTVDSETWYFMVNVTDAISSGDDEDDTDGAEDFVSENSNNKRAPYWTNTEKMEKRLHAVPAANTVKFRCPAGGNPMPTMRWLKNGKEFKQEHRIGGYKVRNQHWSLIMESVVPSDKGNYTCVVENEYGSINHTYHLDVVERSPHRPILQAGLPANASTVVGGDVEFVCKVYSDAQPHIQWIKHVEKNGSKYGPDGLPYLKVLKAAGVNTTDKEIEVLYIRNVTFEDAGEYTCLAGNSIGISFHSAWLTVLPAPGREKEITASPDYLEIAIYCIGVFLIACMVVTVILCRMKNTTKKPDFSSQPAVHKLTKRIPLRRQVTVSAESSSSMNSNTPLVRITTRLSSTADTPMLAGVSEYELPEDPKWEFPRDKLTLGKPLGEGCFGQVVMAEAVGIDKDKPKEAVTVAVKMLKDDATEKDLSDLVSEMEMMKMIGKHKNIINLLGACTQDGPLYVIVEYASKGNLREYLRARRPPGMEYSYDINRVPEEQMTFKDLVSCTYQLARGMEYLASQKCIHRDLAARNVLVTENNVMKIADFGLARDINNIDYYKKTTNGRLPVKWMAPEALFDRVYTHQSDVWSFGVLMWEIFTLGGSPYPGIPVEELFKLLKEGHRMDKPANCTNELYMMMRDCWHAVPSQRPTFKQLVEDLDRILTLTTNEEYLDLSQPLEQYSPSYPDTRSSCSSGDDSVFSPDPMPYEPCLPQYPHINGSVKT
- run description: Biacore
observable: Kd (nM)

[
  {
    "binder": "humanized anti-FGFR2 antibody hFR2-14_H15/L1 (antibody, V domains shown) VH: QVQLVQSGAEVKKPGASVKVSCKASGFTFSTSYMSWVRQAPGPSTEWMGWIYAGDGGTKYNQKFKGRVTLTVDKSTSTAYMELSSLRSEDTAVYYCATDRYGDWFTYWGQGTLVTVSS VL: DIQMTQSPSSLSASVGDRVTITCRASEDIYSNLAWYQQKPGKSPQLLIYDANILADGVPSRFSGSGSGTDYTLTISSLQPEDFATYYCQQYNNYPPFTFGQGTKVEIKR",
    "observable": "Kd",
    "numeric readout": 3.4
  },
  {
    "binder": "humanized anti-FGFR2 antibody hFR2-14_H18/L1 (antibody, V domains shown) VH: QVQLVQSGAEVKKPGASVKVSCKASGFTFSTSYMSWVRQAPGPSTEWMGWIYAGDGGTKYNQKFKGRVTLTVDKSTSTAYMELSSLRSEDTAVYYCATDYYGDWFTYWGQGTLVTVSS VL: DIQMTQSPSSLSASVGDRVTITCRASEDIYSNLAWYQQKPGKSPQLLIYDANILADGVPSRFSGSGSGTDYTLTISSLQPEDFATYYCQQYNNYPPFTFGQGTKVEIKR",
    "observable": "Kd",
    "numeric readout": 1.2
  },
  {
    "binder": "humanized anti-FGFR2 antibody hFR2-14_H5/L1 (antibody, V domains shown) VH: QVQLVQSGAEVKKPGASVKVSCKASGFTFSTSYMSWVRQAPGPSTEWMGWIYAGDGGTKYNQKFKGRVTLTVDKSTSTAYMELSSLRSEDTAVYYCATEGYGDWFTYWGQGTLVTVSS VL: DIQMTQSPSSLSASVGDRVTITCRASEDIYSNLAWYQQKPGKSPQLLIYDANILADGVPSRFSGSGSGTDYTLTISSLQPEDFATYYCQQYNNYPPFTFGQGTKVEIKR",
    "observable": "Kd",
    "numeric readout": 0.95
  },
  {
    "binder": "humanized anti-FGFR2 antibody hFR2-14_H10/L1 (antibody, V domains shown) VH: QVQLVQSGAEVKKPGASVKVSCKASGFTFSTSYMSWVRQAPGPSTEWMGWIYAGDGGTKYNQKFKGRVTLTVDKSTSTAYMELSSLRSEDTAVYYCATDIYGDWFTYWGQGTLVTVSS VL: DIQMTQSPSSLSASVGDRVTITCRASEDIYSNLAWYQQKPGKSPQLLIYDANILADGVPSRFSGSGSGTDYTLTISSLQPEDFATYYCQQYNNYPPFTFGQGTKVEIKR",
    "observable": "Kd",
    "numeric readout": 0.69
  },
  {
    "binder": "humanized anti-FGFR2 antibody hFR2-14_H14/L1 (antibody, V domains shown) VH: QVQLVQSGAEVKKPGASVKVSCKASGFTFSTSYMSWVRQAPGPSTEWMGWIYAGDGGTKYNQKFKGRVTLTVDKSTSTAYMELSSLRSEDTAVYYCATDQYGDWFTYWGQGTLVTVSS VL: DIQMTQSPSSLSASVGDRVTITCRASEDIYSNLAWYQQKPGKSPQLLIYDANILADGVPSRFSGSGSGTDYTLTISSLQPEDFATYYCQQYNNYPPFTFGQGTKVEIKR",
    "observable": "Kd",
    "numeric readout": 2.3
  }
]

Hello, the source for this data is patent US20160317656A1, in case you need it.
